System: rice (Oryza sativa)
method: Test B flooded paddy test, rice
Assay type: in vivo
experimental.parameters: Flood, 250 g ai/ha, applied to paddy water, 2-leaf stage, visual evaluation after 13 to 15 d
outcome.measure: Plant response rating, Rice (0 to 100 scale, 0 is no effect, 100 is complete control)
// no unit, no text: just the number

Req: GET /values?readout=Plant response rating, Rice (0 to 100 scale, 0 is no effect, 100 is complete control)&item= `C[C@@H](Nc1ncc(C(F)(F)F)c(N)n1)c1cc2ccc(F)cc2s1`
Resp: 10

Req: Input `CC[C@H](Nc1ncc(C(F)(F)F)c(N)n1)c1coc2ccccc12`
Resp: 0

Req: Input `Cc1ccc2c([C@H](Nc3ncc(C(F)(F)F)c(N)n3)C3CC3)coc2c1`
Resp: 0

Req: Input CC(Nc1ncc(S(C)(=O)=O)c(N)n1)c1cc2ccccc2s1 (centres unmarked)
Resp: 0

Req: Input `C[C@H](Nc1ncc(C(F)(F)F)c(N)n1)c1coc2ccc(F)cc12`
Resp: 0
